// phosphorylation enrichment lookup, one value per entry
molecular target: FGFR3 (UniProt P22607); test: phosphorylation enrichment, bacterial display (enrichment ratio); higher = better substrate or ligand; peptides without Tyr show the background;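 further: 11-residue human phosphosite peptides and single-mutation variants displayed on the E. coli surface, counted by deep sequencing, each peptide's frequency after selection divided by its frequency in the unselected input library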;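 further: frequency after pTyr selection over input frequency; kinase dosed for 20-30% of maximal phosphorylation in three min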
Sequence (P22607 whole entry, looked up): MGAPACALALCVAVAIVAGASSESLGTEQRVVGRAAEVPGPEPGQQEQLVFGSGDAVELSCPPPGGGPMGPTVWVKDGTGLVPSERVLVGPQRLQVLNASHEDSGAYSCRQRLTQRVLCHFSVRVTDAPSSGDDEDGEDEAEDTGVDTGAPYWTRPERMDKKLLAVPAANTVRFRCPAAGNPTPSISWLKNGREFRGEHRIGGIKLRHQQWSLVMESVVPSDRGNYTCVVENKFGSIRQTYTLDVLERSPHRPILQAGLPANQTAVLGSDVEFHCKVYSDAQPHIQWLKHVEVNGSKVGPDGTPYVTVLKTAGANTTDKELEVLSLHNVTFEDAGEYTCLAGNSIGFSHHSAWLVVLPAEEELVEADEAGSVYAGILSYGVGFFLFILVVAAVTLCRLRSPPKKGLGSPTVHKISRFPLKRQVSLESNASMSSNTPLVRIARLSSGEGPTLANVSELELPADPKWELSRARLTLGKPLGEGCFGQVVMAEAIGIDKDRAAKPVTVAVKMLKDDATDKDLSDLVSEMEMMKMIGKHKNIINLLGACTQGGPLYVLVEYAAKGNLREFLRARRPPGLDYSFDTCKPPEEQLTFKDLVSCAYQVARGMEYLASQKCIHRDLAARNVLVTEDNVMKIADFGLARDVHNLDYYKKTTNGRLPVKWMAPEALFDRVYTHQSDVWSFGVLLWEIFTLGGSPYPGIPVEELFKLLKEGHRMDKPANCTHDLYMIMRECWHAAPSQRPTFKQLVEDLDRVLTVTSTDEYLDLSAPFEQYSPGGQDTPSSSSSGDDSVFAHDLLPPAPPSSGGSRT
Field format: numeric only.

Some solved entries appear below for comparison.
ordered_residues	target_entity	observable	value_measured
QDEHGYISRCF [HSPB1_Y133]	FGFR3 (UniProt P22607)	phosphorylation enrichment	0.792
PEADKYHLTYA [FGG_Y300_R301H]	FGFR3 (UniProt P22607)	phosphorylation enrichment	0.771
LVMFIYAIFWM [SCN1A_Y1684_G1688W]	FGFR3 (UniProt P22607)	phosphorylation enrichment	0.626

Report phosphorylation enrichment for KPGLVYNKVNP [SPRED3_Y72]
0.453

Find the measured phosphorylation enrichment of IRRSSYEDSSL [HNF4A_Y144_T139I] and report it.
0.487

Supply recorded phosphorylation enrichment for IGEGTYRQVYK [CDK13_Y716_G717R] here.
0.391

For QNTGNYFDLFG [PTPN11_Y62_D61N_YF] , write its phosphorylation enrichment.
15.3

---

biological target: MERTK (UniProt Q12866); test: phosphorylation enrichment, bacterial display (enrichment ratio); higher = better substrate or ligand; peptides without Tyr show the background
Sequence (Q12866 whole entry, looked up): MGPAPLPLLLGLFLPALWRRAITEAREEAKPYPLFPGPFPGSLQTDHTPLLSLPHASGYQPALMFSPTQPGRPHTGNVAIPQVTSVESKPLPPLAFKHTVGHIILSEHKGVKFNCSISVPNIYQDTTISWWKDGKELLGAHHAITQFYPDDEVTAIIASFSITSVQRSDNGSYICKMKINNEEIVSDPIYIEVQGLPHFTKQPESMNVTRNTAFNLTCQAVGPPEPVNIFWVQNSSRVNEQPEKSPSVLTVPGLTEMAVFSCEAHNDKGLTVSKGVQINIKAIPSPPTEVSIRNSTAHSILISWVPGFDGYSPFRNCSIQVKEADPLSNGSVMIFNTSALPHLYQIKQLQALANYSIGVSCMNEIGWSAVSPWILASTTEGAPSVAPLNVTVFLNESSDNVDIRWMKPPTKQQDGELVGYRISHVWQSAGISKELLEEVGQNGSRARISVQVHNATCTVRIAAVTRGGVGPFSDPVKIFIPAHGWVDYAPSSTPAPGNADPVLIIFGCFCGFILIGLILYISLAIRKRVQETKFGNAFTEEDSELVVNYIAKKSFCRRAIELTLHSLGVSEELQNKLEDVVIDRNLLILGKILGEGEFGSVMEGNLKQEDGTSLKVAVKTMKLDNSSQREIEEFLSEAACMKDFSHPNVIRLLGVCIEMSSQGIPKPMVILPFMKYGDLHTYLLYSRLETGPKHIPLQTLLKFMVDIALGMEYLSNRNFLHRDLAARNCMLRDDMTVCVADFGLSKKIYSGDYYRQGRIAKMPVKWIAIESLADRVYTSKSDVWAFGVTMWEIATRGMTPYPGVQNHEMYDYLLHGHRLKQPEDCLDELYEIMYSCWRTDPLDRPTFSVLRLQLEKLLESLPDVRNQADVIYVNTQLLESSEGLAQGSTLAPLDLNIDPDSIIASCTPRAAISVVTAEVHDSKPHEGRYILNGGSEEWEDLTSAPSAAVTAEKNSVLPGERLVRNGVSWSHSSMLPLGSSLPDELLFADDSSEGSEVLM
observable: phosphorylation enrichment
Respond using a number only.

ordered_residues	phosphorylation enrichment
AHAGEYGAEAL [HBA1_Y25]	0.343
RPGGRYPVARR [SHANK3_Y1569_S1566G]	0.775
SRASYYRKGGC [ALK_Y1283_Y1278S]	0.428
LRRFIYRPPDQ [OTOF_Y1231_R1236Q]	0.516

# input for lookup
Under MERTK (UniProt Q12866), report phosphorylation enrichment for FFSSEYHFVGG [CTSC_Y345_YF]
3.31

---

phosphorylation enrichment for assorted sequences
target: Hck (UniProt P08631); assay: phosphorylation enrichment, bacterial display (enrichment ratio); higher = better substrate or ligand; peptides without Tyr show the background
Sequence (P08631 whole entry, looked up): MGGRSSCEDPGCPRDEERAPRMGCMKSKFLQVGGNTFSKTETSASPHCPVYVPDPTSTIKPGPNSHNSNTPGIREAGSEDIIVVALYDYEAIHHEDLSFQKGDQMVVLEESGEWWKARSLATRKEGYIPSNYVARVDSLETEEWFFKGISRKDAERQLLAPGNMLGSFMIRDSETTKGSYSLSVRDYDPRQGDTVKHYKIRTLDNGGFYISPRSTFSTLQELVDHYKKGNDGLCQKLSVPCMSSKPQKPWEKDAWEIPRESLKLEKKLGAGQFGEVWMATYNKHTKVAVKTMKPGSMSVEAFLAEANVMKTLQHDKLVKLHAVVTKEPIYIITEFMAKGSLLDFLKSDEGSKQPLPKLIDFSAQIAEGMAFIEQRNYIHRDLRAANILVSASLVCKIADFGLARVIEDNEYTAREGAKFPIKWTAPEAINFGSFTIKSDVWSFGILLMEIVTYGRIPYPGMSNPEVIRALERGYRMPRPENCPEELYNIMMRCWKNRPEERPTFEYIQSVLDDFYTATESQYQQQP

Example entries and their recorded answers appear below.
ordered_residues	phosphorylation enrichment
NTGDFYDLFGG [PTPN11_Y63_YF]	3.44
CNLDTYQKRLR [PLA2G2D_Y126_R121C]	0.475
FSMGCYEISLG [HMGCL_Y198_YF]	0.836
NVDGKYSFLKV [GRM3_Y478_G475D_YF]	0.431
RPFRPYIIRGM [LRP5_Y1531_YF]	0.655
RQQQDYWLMDV [ANPEP_Y600_I603M]	0.487

Please report the measured phosphorylation enrichment for DSRRDYVSQFE [APOA1_Y53_G50R] tested on Hck (UniProt P08631).
0.478

Enter measured phosphorylation enrichment, system Hck (UniProt P08631), for the sequence shown: EEVKAYLDFGE [CHAC2_Y78_R82G]
0.564

Retrieve phosphorylation enrichment on Hck (UniProt P08631); query GNEEAYGSSHI [FAM171B_Y522_R524S]
0.489

Quote phosphorylation enrichment with test system Hck (UniProt P08631) for TRSYDYMEGGD [FGF7_Y58]
0.488

Enter recorded phosphorylation enrichment with Hck (UniProt P08631) for EPSLVYMVTKI [CPS1_Y768_D767V] here.
1.26

---

biological target: Fes (UniProt P07332); assay: phosphorylation enrichment, bacterial display (enrichment ratio); higher = better substrate or ligand; peptides without Tyr show the background
Sequence (P07332 whole entry, looked up): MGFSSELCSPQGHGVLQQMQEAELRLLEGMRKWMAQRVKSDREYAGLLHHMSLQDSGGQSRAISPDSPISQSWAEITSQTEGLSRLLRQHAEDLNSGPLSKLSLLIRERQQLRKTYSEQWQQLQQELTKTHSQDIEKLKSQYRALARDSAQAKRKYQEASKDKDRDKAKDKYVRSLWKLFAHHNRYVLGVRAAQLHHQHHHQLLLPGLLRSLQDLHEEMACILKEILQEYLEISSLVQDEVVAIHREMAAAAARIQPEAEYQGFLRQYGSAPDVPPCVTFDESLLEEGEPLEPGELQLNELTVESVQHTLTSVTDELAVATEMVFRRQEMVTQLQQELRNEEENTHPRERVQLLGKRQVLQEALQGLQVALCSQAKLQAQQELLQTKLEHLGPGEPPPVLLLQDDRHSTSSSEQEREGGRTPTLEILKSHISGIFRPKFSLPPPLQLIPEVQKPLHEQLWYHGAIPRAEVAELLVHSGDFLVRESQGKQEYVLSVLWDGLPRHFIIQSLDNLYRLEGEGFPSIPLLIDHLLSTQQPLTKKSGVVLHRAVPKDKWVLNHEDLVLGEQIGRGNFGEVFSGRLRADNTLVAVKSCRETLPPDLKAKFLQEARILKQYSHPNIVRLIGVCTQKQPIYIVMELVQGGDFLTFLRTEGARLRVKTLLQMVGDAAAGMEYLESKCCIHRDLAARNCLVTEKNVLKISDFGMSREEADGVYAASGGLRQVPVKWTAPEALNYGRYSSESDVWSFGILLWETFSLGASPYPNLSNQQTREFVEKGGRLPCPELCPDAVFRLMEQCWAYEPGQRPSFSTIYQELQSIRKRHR
observable: phosphorylation enrichment
Respond with the number and no other words.

These recorded examples may help you get a feel for the data.
ordered_residues	target_entity	observable	value_measured
LIQRNYKLTAQ [ALPK2_Y1975_A1978T]	Fes (UniProt P07332)	phosphorylation enrichment	1.12
ARSHIYTFASC [MEFV_Y741]	Fes (UniProt P07332)	phosphorylation enrichment	1
AEMKRYSESSS [RAI14_Y869_A870S]	Fes (UniProt P07332)	phosphorylation enrichment	0.638
GINDDYGQLKN [NBN_Y679]	Fes (UniProt P07332)	phosphorylation enrichment	1.1
KRLDGYVLEGW [IGSF9_Y656_R661W]	Fes (UniProt P07332)	phosphorylation enrichment	0.835
REVPVYTYSEP [FAM120B_Y368_D370Y]	Fes (UniProt P07332)	phosphorylation enrichment	1.82
AKRKNYAPVTM [CFAP47_Y557_A561T]	Fes (UniProt P07332)	phosphorylation enrichment	0.518
KNKKDYFDMFE [SLC26A3_Y526_YF]	Fes (UniProt P07332)	phosphorylation enrichment	0.909
KRAIGHYSATS [FAM120A_Y327_Y327H]	Fes (UniProt P07332)	phosphorylation enrichment	0.498
GVYSRYFTTYD [CLCA1_Y661]	Fes (UniProt P07332)	phosphorylation enrichment	1

For RKKEEYKMAPY [F8_Y1990_L1994P] , write its phosphorylation enrichment.
1.33

Let me know recorded phosphorylation enrichment for FSAPNYCFRCG [PPP2CA_Y265_YF] , thanks.
0.674

Give the reported value of phosphorylation enrichment for this record: DENWFYTRAAF [RPS19_Y54_S59F]
1.32

Give the measured phosphorylation enrichment for DFTSRYLNASD [PKHD1_Y828]
0.893

For the sequence AFDNLYYWDQD [ERBB2_Y1221] , give its reported phosphorylation enrichment.
2.42

Supply recorded phosphorylation enrichment for CEHRGHLFLAI [TEK_Y897_Y897H_YF] here.
1.11

Complete the entry with phosphorylation enrichment for VNCHQYDGLVE [ATP2A2_Y407]
1.2

Let me know recorded phosphorylation enrichment for ENAGFYFRISA , thanks.
1.42

Given the sequence KKCTTYIDCDL [ASPA_Y64_R63T] , write its reported phosphorylation enrichment.
1.14

Give phosphorylation enrichment for KLGDVYVNDAF [PGK1_Y161]
0.86

Name the recorded phosphorylation enrichment of the item DYYDLYGGEKF [PTPN11_Y66] in your answer.
1.2

// provenance: the supplement of paper PMC10065799
